# assay-overview: Stability in aqueous solutions (sodium phosphate buffer, 37° C.)
# Format: physicochemical
# assay-conditions: buffer, pH 6.8, Table 3; aqueous buffer pH 6.8, 37° C.; read-out: Half-life in aqueous solution (converted)
observation-type: half-life (min)

>>> value_observed("C=C(C)[C@@H]1CCC(C)=C[C@H]1c1c(O)cc(CCCCC)cc1OC(=O)CN1CCN(C)CC1")
9.6
>>> value_observed("C=C(C)[C@@H]1CCC(C)=C[C@H]1c1c(OC(=O)N2CCN(C)CC2)cc(CCCCC)cc1OC(=O)N1CCN(C)CC1")
150
>>> value_observed("C=C(C)[C@@H]1CCC(C)=C[C@H]1c1c(O)cc(CCCCC)cc1OC(=O)NCCN(C)C")
8.4

Hey, just so you know, these numbers are from patent US20220339150A1.
